Let's look at some molecules and their measured IC50.
# system.name: JAK1 (recombinant purified GST-tagged catalytic domain) (Homo sapiens (Human));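 also: biochemical assay with HTRF read-out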
# Sequence (P23458 875-1153): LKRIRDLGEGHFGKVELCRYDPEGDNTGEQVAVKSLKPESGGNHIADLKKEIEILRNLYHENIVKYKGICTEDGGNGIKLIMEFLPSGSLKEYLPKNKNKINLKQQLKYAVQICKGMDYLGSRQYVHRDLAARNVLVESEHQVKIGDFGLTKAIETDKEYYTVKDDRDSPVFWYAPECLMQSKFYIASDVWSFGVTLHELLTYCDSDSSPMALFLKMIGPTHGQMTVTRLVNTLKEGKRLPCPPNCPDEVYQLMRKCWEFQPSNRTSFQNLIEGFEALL
# method.summary: biochemical
Express it in nM; write the number only.

# molecule, IC50 (nM)
measured = [
    ("N#C[C@H]1CC(NCC(=O)O)CC[C@@H]1n1cc(C(N)=O)c(Nc2ccc(S(=O)(=O)C(F)(F)F)cc2)n1 (single isomer, unassigned)", 0.2),
    ("CN[C@@H]1CC[C@H](n2cc(C(N)=O)c(Nc3ccc(Cl)cc3)n2)[C@@H](C#N)C1 (single isomer, unassigned)", 2),
    ("C[C@H]1C[C@H](C)N1[C@@H]1CC[C@H](n2cc(C(N)=O)c(Nc3ccc(C(F)(F)F)cc3)n2)[C@@H](C#N)C1 (single isomer, unassigned)", 5),
    ("N#C[C@H]1C[C@H](OCC2CC2)CC[C@H]1n1cc(C(N)=O)c(Nc2ccnc(F)c2)n1 (single isomer, unassigned)", 69),
]

# evaluate next
Ask | Which value of IC50 has been reported for CS(=O)(=O)C1CN(C(=O)[C@H]2CC[C@H](n3cc(C(N)=O)c(Nc4ccc(Cl)cc4)n3)[C@@H](C#N)C2)C1 (single isomer, unassigned) in the records?
Reply | 2
